# Tested system: hTLR7 (Homo sapiens, UniProt Q9NYK1)
# Sequence (Q9NYK1 27-1049): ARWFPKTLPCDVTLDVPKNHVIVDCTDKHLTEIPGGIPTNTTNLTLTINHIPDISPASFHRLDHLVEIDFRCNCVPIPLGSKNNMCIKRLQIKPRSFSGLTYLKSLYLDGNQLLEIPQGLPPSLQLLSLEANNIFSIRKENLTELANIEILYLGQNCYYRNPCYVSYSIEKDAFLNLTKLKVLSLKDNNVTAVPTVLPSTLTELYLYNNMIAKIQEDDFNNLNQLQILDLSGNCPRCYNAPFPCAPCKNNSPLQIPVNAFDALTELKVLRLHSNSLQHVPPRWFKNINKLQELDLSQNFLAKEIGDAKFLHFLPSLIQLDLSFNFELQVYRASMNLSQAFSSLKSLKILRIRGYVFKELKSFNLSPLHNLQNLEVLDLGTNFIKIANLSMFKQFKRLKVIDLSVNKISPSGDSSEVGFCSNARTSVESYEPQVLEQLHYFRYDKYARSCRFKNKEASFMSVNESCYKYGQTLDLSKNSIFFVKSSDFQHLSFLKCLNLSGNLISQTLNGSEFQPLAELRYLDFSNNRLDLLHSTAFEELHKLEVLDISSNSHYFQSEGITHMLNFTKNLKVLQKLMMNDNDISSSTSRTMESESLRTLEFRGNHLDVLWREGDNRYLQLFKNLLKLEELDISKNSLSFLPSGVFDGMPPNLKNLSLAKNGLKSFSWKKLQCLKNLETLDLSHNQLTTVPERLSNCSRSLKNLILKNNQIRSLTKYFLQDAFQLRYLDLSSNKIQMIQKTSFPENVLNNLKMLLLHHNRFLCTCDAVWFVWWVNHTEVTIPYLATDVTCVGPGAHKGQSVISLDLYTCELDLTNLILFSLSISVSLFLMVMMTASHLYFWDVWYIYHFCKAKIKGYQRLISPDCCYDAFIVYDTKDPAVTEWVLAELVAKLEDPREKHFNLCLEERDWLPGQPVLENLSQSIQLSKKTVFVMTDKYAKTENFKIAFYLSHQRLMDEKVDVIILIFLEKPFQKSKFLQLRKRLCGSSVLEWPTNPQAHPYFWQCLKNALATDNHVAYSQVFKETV
# Test method notes: Human TLR7 Reporter Assay
# Measurement parameters: HEK-Blue hTLR7 cells, 16 hours, normalized to CL097 (6 μM) and DMSO
pEC50: −log10 of the molar value.
Result type: pEC50

compound=COc1cccc(OC)c1Cn1cc2nc(N)nc(NC(C)C)c2n1 measured=5.95
compound="CCCCNc1nc(N)nc2cn(Cc3c(OC)ccc(CN4CCN(C(=O)C5CCC(CN6C(=O)CC(SC[C@H](N)C(=O)O)C6=O)CC5)CC4)c3OC)nc12 (some centres unmarked)" measured=5.66
compound=COCCNc1nc(N)nc2cn(Cc3c(OC)cccc3OC)nc12 measured=6.45
compound="CCCCNc1nc(N)nc2cn(Cc3ccc(C(N)CN)cc3OC)nc12 (centres unmarked)" measured=4.97

1: CCCCNc1nc(N)nc2cn(Cc3c(OC)cccc3OCCCC(=O)OC)nc12
2: CCC[C@H](C)Nc1nc(N)nc2cn(Cc3c(OC)cc(CNC)cc3OC)nc12
Query :: Decide: 1 or 2 , by lowest recorded pEC50. Pick one; state its label.
Result :: 1

a: C=CCN(C)Cc1cc(OC)c(Cn2cc3nc(N)nc(N[C@H](CO)CCC)c3n2)c(OC)c1
b: COc1cccc(OC)c1Cn1cc2nc(N)nc(NCC(C)O)c2n1 (centres unmarked) [Compound 49]
c: CCCCNc1nc(N)nc2cn(Cc3c(OC)cc(CCN)cc3OC)nc12
Query :: List these items ordered by pEC50, big to small. Answer format: list of labels, ordered as asked.
Result :: a, c, b
(a: 7.37, c: 6.55, b: 5.14)

A: CCCCNc1nc(N)nc2cn(Cc3c(OC)cc(NCCN)cc3OC)nc12
B: CCCCNc1nc(N)nc2cn(Cc3ccc(C(C)NCCC)cc3OC)nc12 (centres unmarked) [Compound 216]
Query :: Decide: A or B , by lowest recorded pEC50. Pick one; state its label.
Result :: A
